Reported values of MIC for individual entries
- System: Mycobacterium avium
- Test Name: Antimycobacterial activity against isoniazid, rifampicin, ethambutol and ofloxacin-resistant Mycobacterium avium My 330/88 after 14 days
- Type: functional
- Settings: My 330/88, 336 h
Report the figure in µM without appending any unit label.

CCOP(=O)(OCC)Oc1ccc(Br)cc1C(=O)Nc1ccc(Br)cc1    8

[ask] Item CCOP(=O)(OCC)Oc1cc(Cl)ccc1C(=O)Nc1cccc(Br)c1 has what recorded MIC?
[reply] 16

[ask] Requested field: MIC. Item: CCOP(=O)(OCC)Oc1ccc(Cl)cc1C(=O)Nc1ccc(Br)cc1
[reply] 8

[ask] Given the compound NNC(=O)c1ccncc1 , what is its reported MIC?
[reply] 250

[ask] What does the record list as MIC for CCOP(=O)(OCC)Oc1cc(Cl)ccc1C(=O)Nc1ccc(Cl)c(Cl)c1 ?
[reply] 16

[ask] Entry CCOP(=O)(OCC)Oc1ccc(Br)cc1C(=O)Nc1ccc(Cl)c(Cl)c1 : reported MIC = ?
[reply] 16

[ask] Which MIC is reported for this compound? CCOP(=O)(OCC)Oc1cc(Cl)ccc1C(=O)Nc1ccc(F)cc1
[reply] 32

[ask] What value of MIC has been reported for the following compound? CCOP(=O)(OCC)Oc1ccc(Br)cc1C(=O)Nc1ccc(Cl)cc1
[reply] 8

[ask] Endpoint output: MIC of CCOP(=O)(OCC)Oc1cc(Cl)ccc1C(=O)Nc1cccc(F)c1 . Value?
[reply] 16

[ask] // lookup MIC for CCOP(=O)(OCC)Oc1cc(Cl)ccc1C(=O)Nc1cccc(Cl)c1
[reply] 16

[ask] Find the recorded MIC belonging to CCOP(=O)(OCC)Oc1ccc(Cl)cc1C(=O)Nc1ccc(Cl)cc1 and report it.
[reply] 8

###

- Test system: Mycobacterium tuberculosis
- Test Name: Antimycobacterial activity against Mycobacterium tuberculosis H37Rv My 331/88 after 21 days
- Type: functional
- Settings: H37Rv My 331/88, 504 h
Value Type: MIC (µM)
Express your answer in µM, writing the number without its unit.

Solved entries:
CCOP(=O)(OCC)Oc1ccc(Cl)cc1C(=O)Nc1ccc(Cl)c(Cl)c1    1
CCOP(=O)(OCC)Oc1ccc(Br)cc1C(=O)Nc1ccc(Br)cc1    2
CCOP(=O)(OCC)Oc1ccc(Br)cc1C(=O)Nc1cccc(Br)c1    2

[ask] May I ask what MIC has been recorded for CCOP(=O)(OCC)Oc1ccc(Br)cc1C(=O)Nc1cccc(F)c1 ?
[reply] 8

[ask] If you can, please state the reported MIC value of CCOP(=O)(OCC)Oc1ccc(Cl)cc1C(=O)Nc1cccc(Br)c1 .
[reply] 4

[ask] Which MIC is listed for CCOP(=O)(OCC)Oc1ccc(Br)cc1C(=O)Nc1cccc(Cl)c1 ?
[reply] 4

[ask] GET /values?readout=MIC&item= CCOP(=O)(OCC)Oc1cc(Cl)ccc1C(=O)Nc1ccc(C(F)(F)F)cc1
[reply] 1

###

- Test system: HepG2
- Test Name: Cytotoxicity against human HepG2 cells after 24 hrs by CellTiter assay
- Type: cell-based
- Settings: HepG2, 24 h
Value Type: IC50
Answer as a quantity: numeral, then unit.

CCOP(=O)(OCC)Oc1ccc(Cl)cc1C(=O)Nc1cccc(C(F)(F)F)c1    5.68 µM
CCOP(=O)(OCC)Oc1cc(Cl)ccc1C(=O)Nc1ccc(Cl)cc1    5.6 µM
CCOP(=O)(OCC)Oc1ccc(Br)cc1C(=O)Nc1cccc(Br)c1    4.41 µM

# ---- query molecule ----
[ask] # query: IC50 of entry CCOP(=O)(OCC)Oc1ccc(Br)cc1C(=O)Nc1cccc(F)c1
[reply] 5.54 µM

###

- Tested on: Staphylococcus aureus
- Test Name: Antibacterial activity against methicillin-resistant Staphylococcus aureus H 5996/08 after 24 hrs by broth microdilution method
- Format: functional
- Settings: H 5996/08, 24 h
Value Type: MIC95
Provide the measurement as a number trailed by its unit.

Example results:
CCOP(=O)(OCC)Oc1cc(Cl)ccc1C(=O)Nc1cccc(Cl)c1    500 µM
CC1(C)S[C@@H]2[C@H](NC(=O)Cc3ccccc3)C(=O)N2[C@H]1C(=O)O    62.5 µM
CCOP(=O)(OCC)Oc1ccc(Br)cc1C(=O)Nc1cccc(Cl)c1    125 µM

Please examine the following record next.
[ask] # lookup: MIC95 of CCOP(=O)(OCC)Oc1ccc(Cl)cc1C(=O)Nc1ccc(Cl)cc1
[reply] 125 µM

###

Measured MIC values are reported for all entries that follow.
- Tested on: Mycobacterium avium
- Test Name: Antimycobacterial activity against isoniazid, rifampicin, ethambutol and ofloxacin-resistant Mycobacterium avium My 330/88 after 14 days
- Format: functional
- Settings: My 330/88, 336 h
Put your answer as a value accompanied by its unit after it.

Nc1ccc(C(=O)O)c(O)c1 [AMINOSALICYLIC ACID]    32 µM

[ask] // returns reported MIC for input CCOP(=O)(OCC)Oc1ccc(Br)cc1C(=O)Nc1ccc(C(F)(F)F)cc1
[reply] 8 µM

[ask] Quick one: MIC of CCOP(=O)(OCC)Oc1cc(Cl)ccc1C(=O)Nc1ccc(Cl)cc1 ?
[reply] 8 µM

[ask] Item under review: CCOP(=O)(OCC)Oc1cc(Cl)ccc1C(=O)Nc1cccc(C(F)(F)F)c1 . Reported MIC?
[reply] 16 µM

[ask] Which value of MIC has been reported for CCOP(=O)(OCC)Oc1ccc(Cl)cc1C(=O)Nc1cccc(Br)c1 in the records?
[reply] 16 µM

[ask] Which MIC reading was recorded for the molecule CCOP(=O)(OCC)Oc1ccc(Cl)cc1C(=O)Nc1cccc(F)c1 ?
[reply] 32 µM

[ask] Please report the recorded MIC for CCOP(=O)(OCC)Oc1ccc(Cl)cc1C(=O)Nc1cccc(Cl)c1 .
[reply] 16 µM

###

- Test system: Mycobacterium tuberculosis
- Test Name: Antimycobacterial activity against Mycobacterium tuberculosis H37Rv My 331/88 after 21 days
- Format: functional
- Settings: H37Rv My 331/88, 504 h
Value Type: log10 MIC (log10 of the value in µM)
Hi team, quick reminder: these entries are log10 of MIC (µM).

CCOP(=O)(OCC)Oc1ccc(Cl)cc1C(=O)Nc1cccc(F)c1    0.90
NNC(=O)c1ccncc1 [ISONIAZID]    0.00
CCOP(=O)(OCC)Oc1cc(Cl)ccc1C(=O)Nc1cccc(Br)c1    0.60

[ask] Item under review: CCOP(=O)(OCC)Oc1ccc(Cl)cc1C(=O)Nc1cccc(C(F)(F)F)c1 . Reported log10 MIC?
[reply] 0.30

[ask] Reported log10 MIC for CCOP(=O)(OCC)Oc1ccc(Br)cc1C(=O)Nc1ccc(Cl)c(Cl)c1 : what is it?
[reply] 0.00

[ask] Report log10 MIC for CCOP(=O)(OCC)Oc1cc(Cl)ccc1C(=O)Nc1ccc(Cl)c(Cl)c1 please.
[reply] 0.60

[ask] Reported log10 MIC for CCOP(=O)(OCC)Oc1cc(Cl)ccc1C(=O)Nc1cccc(F)c1 : what is it?
[reply] 0.90

###

- Test system: Trichosporon asahii
- Test Name: Antifungal activity against Trichosporon asahii 1188 after 48 hrs by broth microdilution method
- Format: functional
- Settings: Trichosporon asahii, 1188, 48 h
// values below are reported MIC80

Use the examples below as a reference point.
CCOP(=O)(OCC)Oc1ccc(Cl)cc1C(=O)Nc1ccc(C(F)(F)F)cc1    250 µM
CCOP(=O)(OCC)Oc1ccc(Cl)cc1C(=O)Nc1cccc(Cl)c1    > 500 µM
CCOP(=O)(OCC)Oc1cc(Cl)ccc1C(=O)Nc1ccc(Cl)cc1    > 500 µM
CCOP(=O)(OCC)Oc1ccc(Cl)cc1C(=O)Nc1ccc(Br)cc1    > 500 µM

[ask] Param item = CCOP(=O)(OCC)Oc1ccc(Br)cc1C(=O)Nc1cccc(F)c1 ; retrieve measured MIC80.
[reply] > 500 µM

###

- System: Mycobacterium kansasii
- Test Name: Antimycobacterial activity against Mycobacterium kansasii My 235/80 after 7 days
- Assay type: functional
- Settings: My 235/80, 168 h
Mark each entry criterion met if its MIC sits below 4 µM, and criterion not met for all others.

These solved cases illustrate the format of a correct answer.
CCOP(=O)(OCC)Oc1ccc(Cl)cc1C(=O)Nc1ccc(C(F)(F)F)cc1    criterion met
CCOP(=O)(OCC)Oc1ccc(Br)cc1C(=O)Nc1ccc(Cl)c(Cl)c1    criterion met
CCOP(=O)(OCC)Oc1ccc(Br)cc1C(=O)Nc1cccc(F)c1    criterion not met
CCOP(=O)(OCC)Oc1ccc(Br)cc1C(=O)Nc1ccc(F)cc1    criterion not met
NNC(=O)c1ccncc1    criterion not met
CCOP(=O)(OCC)Oc1ccc(Cl)cc1C(=O)Nc1cccc(C(F)(F)F)c1    criterion not met
CCOP(=O)(OCC)Oc1ccc(Br)cc1C(=O)Nc1ccc(Br)cc1    criterion met
CCOP(=O)(OCC)Oc1cc(Cl)ccc1C(=O)Nc1cccc(F)c1    criterion not met
Nc1ccc(C(=O)O)c(O)c1    criterion not met
CCOP(=O)(OCC)Oc1ccc(Br)cc1C(=O)Nc1ccc(C(F)(F)F)cc1    criterion met

[ask] Is the reported MIC for CCOP(=O)(OCC)Oc1ccc(Cl)cc1C(=O)Nc1cccc(Cl)c1 strictly below 4 µM?
[reply] criterion not met

[ask] Is MIC strictly under 4 µM for the entry CCOP(=O)(OCC)Oc1ccc(Cl)cc1C(=O)Nc1ccc(F)cc1 ?
[reply] criterion not met

[ask] Lab note: MIC threshold 4 µM. Does this compound come in strictly under it? CCOP(=O)(OCC)Oc1cc(Cl)ccc1C(=O)Nc1ccc(F)cc1
[reply] criterion not met
